The values you see were collected from the supplement of paper PMC9732359.

# PROTOCOL_DESCRIPTION: protein stability index of a GFP-peptide fusion (yeast GPS) (PSI 1-4); higher = more stable; sorted into four equal gates, so the index is relative within each strain
# APPLIED_CONDITIONS: ubr1∆

BIOSEQUENCE | protein stability index
LPRCSKEEFRLMISPKD [RRI2] | 1.67
VRILRLITTNSVEEVIL [SNF2] | 1.68
KMYDYEEKEESNLAATK [RPN11] | 2.96
SSPYAAMLAAQDVAAKC [RPS14B] | 1.73
NSDLEFNTFWDEKGNEI [ARP9] | 3.34
ETKSWINESAENFSNGI [MED1] | 2.77
TVEALDFREKALYIAMM [RET1] | 2.59
KFADGFLIHSGQPVNDF [RPS3] | 3.06
TFVERLPNETINDRNDR [DIS3] | 2.28
LKSKVIDSPELLSLIST [RPN7] | 2.61
